tested on: MCF7 cells; test: CCK8 assay, MCF7 breast cancer cells; assay type: cell-based; conditions: Homo sapiens, CCK8, control drug, read-out: IC50, antiproliferative activity

# SMILES REPR, IC50
records = [
    ("O=c1[nH]cc(F)c(=O)[nH]1", "> 20 µM"),
]

----------
Test system: Caco-2 cells
Assay: CCK8 assay, Caco-2 colon cancer cells
Format: cell-based
Details: Homo sapiens, CCK8, control drug, read-out: IC50, antiproliferative activity
Procedure: C42B, PC3, Caco-2, HepG2, MCF7, HL-60, 8505 C, OVCAR-3, and A549 were cultured to screen the broad-spectrum antiproliferative activity of compound 14. For above cell lines, three thousand cells per well were seeded in the 96-well plate and treated by compound 14 for 48 or 72 h at different concentrations (0, 5, 10, and 20 μM). […] The 96-well plate was measured with a microplate reader (Bio-Tek, San Diego, CA) at a wavelength of 450 nm to calculate IC50 values.
pIC50: −log10 of the molar value.

# SMILES REPR, pIC50
records = [
    ("O=c1[nH]cc(F)c(=O)[nH]1", "< 4.70"),
]

----------
target: MAO-B (Homo sapiens)
Sequence (P27338 whole entry, species assumed): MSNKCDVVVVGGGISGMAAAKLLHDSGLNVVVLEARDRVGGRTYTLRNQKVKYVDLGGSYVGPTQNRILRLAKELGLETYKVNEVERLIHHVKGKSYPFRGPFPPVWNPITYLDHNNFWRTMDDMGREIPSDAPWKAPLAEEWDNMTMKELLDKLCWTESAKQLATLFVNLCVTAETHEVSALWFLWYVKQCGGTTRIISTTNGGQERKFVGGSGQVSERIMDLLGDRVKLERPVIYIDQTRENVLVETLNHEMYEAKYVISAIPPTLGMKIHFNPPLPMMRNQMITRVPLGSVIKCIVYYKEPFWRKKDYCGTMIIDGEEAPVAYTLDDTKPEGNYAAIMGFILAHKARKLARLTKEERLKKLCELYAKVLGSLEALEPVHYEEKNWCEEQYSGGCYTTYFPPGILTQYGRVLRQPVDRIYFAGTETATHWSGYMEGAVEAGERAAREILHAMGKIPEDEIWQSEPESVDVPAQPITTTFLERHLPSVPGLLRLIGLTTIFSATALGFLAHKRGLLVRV

# SMILES REPR, IC50
data = [
    ("COc1ccc(CN(C(=O)CCN2C(=O)CCCC2=O)c2cc(OC)c(OC)c(OC)c2)cc1", "> 1000 nM"),
]

----------
tested on: HepG2 cells; assay: CCK8 assay, HepG2 liver cancer cells; format: cell-based; conditions: Homo sapiens, CCK8, control drug, read-out: IC50, antiproliferative activity
METRIC: IC50 (µM)

# SMILES REPR, RECORDED RESULT
measured = [
    ("O=c1[nH]cc(F)c(=O)[nH]1", 9.87),
]

----------
target: MAO-A (Homo sapiens)
Sequence (P21397 whole entry, species assumed): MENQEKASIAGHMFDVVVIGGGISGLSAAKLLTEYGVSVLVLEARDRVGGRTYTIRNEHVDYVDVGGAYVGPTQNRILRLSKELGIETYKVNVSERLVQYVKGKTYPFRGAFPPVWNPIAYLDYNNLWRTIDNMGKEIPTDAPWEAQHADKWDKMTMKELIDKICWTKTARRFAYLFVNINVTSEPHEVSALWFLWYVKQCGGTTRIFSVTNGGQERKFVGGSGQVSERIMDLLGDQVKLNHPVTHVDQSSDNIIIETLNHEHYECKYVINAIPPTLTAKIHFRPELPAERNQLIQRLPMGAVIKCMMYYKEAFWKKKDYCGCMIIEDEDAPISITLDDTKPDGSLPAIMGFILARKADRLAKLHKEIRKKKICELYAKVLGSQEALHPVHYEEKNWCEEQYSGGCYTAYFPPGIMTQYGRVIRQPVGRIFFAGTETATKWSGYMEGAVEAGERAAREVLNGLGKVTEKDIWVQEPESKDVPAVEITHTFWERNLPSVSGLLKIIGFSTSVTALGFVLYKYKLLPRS
pIC50: −log10 of the molar value.
METRIC: pIC50

# SMILES REPR, RECORDED RESULT
measured = [
    ("COc1ccc(CN(C(=O)CCN2C(=O)CCCC2=O)c2cc(OC)c(OC)c(OC)c2)cc1", "< 6.00"),
]

----------
system: OVCAR-3 cells; assay: CCK8 assay, OVCAR-3 ovarian cancer cells; assay type: cell-based; settings: Homo sapiens, CCK8, control drug, read-out: IC50, antiproliferative activity
METRIC: IC50

# SMILES REPR, TESTED ON, RECORDED RESULT
records = [
    ("O=c1[nH]cc(F)c(=O)[nH]1", "OVCAR-3 cells", "> 20 µM"),
]

----------
tested on: PC3 cells; assay: CCK8 assay, PC3 prostate cancer cells; format: cell-based; details: Homo sapiens, PC-3, CCK8, control drug, read-out: IC50, antiproliferative activity
pIC50: −log10 of the molar value.
METRIC: pIC50

# SMILES REPR, TESTED ON, METRIC, RECORDED RESULT
records = [
    ("O=c1[nH]cc(F)c(=O)[nH]1", "PC3 cells", "pIC50", 4.91),
]

From: paper PMC11843658
